- experimentalSystem: Cytochrome P450 2C9 (Homo sapiens)
- testDetails: blockers of cytochrome P450 2C9 activity – biochemical, luminescence, ADME assay, primary screen (AID 777)
- conditionParameters: CYP2C9 Supersomes, luciferin-H conversion, at 5 µM, hits give high values
Out of some 96,000 compounds screened, about 19,000 (20%) were called active. Not all results are given here.
The label depends only on inhibition: criterion met if it is at least 10%, criterion not met if it is smaller.

[Q] Answer whether inhibition of Cc1cccc(OCC(O)Cn2c(=N)n(CCN3CCOCC3)c3ccccc32)c1 (stereo not drawn) is greater than or equal to 10%.
[A] criterion not met

[Q] Answer whether inhibition of "CCNCc1cc2cc(C)ccc2[nH]c1=O" is greater than or equal to 10%.
[A] criterion not met

[Q] Answer whether inhibition of "Cc1onc(-c2ccccc2)c1C(=O)N1CCOCC1" is greater than or equal to 10%.
[A] criterion not met

[Q] Answer whether inhibition of "Cc1ccc(C(=O)/C=C/c2c(C)nn(-c3ccccc3)c2Cl)cc1" is greater than or equal to 10%.
[A] criterion met

[Q] Answer whether inhibition of "Cc1onc(-c2ccccc2)c1C(=O)Nc1ccccc1C#N" is greater than or equal to 10%.
[A] criterion met

[Q] Answer whether inhibition of "O=C(CCCCCn1c(=O)[nH]c2ccccc2c1=O)NCCc1c[nH]c2ccccc12" is greater than or equal to 10%.
[A] criterion met

[Q] Answer whether inhibition of O=C1CCCC2=C1C(c1ccccc1)n1c(s/c(=C/c3cccc(F)c3)c1=O)=N2 (stereo not drawn) is greater than or equal to 10%.
[A] criterion met

[Q] Answer whether inhibition of CCC(C)NC(=O)CCCc1ccccc1 (stereo not drawn) is greater than or equal to 10%.
[A] criterion not met

[Q] Answer whether inhibition of "Cc1nn(C)cc1C(=O)NNC(=S)Nc1ccc(Cl)cc1" is greater than or equal to 10%.
[A] criterion met

[Q] Answer whether inhibition of "CC(=O)Nc1cccc(NC(=O)c2c(-c3ccccc3)noc2C)c1" is greater than or equal to 10%.
[A] criterion met

[Q] Answer whether inhibition of "CCOc1cc2[nH]c(=S)n(Cc3ccc(C(=O)NCCOC)cc3)c(=O)c2cc1OCC" is greater than or equal to 10%.
[A] criterion not met

[Q] Answer whether inhibition of Cc1ccc(N2C(=O)CC(Sc3ncn[nH]3)C2=O)cc1 (stereo not drawn) is greater than or equal to 10%.
[A] criterion not met

[Q] Answer whether inhibition of "O=C(CCn1c(=S)[nH]c2ccccc2c1=O)NCCCN1CCCC1=O" is greater than or equal to 10%.
[A] criterion not met

###

- experimentalSystem: Cytochrome P450 2C9 (Homo sapiens) (UniProt P11712)
- Sequence (P11712 whole entry, looked up): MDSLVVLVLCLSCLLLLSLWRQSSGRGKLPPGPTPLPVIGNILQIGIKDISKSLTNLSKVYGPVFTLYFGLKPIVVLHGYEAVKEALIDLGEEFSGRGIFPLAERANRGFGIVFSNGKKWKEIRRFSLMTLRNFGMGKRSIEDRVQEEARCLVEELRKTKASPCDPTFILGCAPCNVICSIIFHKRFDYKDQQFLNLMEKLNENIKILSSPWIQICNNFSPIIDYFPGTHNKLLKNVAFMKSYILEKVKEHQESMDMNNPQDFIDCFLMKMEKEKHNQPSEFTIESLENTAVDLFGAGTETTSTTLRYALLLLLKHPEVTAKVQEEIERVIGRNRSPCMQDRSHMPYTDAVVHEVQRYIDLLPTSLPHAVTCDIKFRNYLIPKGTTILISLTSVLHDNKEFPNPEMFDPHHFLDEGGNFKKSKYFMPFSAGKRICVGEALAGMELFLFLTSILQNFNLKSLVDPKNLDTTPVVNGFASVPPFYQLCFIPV
- testDetails: blockers of cytochrome P450 2C9 activity – biochemical, luminescence, ADME assay, primary screen (AID 777)
- conditionParameters: CYP2C9 Supersomes, luciferin-H conversion, at 5 µM, hits give high values
Among all 96,000 compounds or so, about 19,000 (20%) were called active. The list is a sample of the results.
What inhibition was measured for each of the following?
The reply should be a number in %, with the unit left off.

[Q] Param item = "O=S(=O)(N/N=C\c1cccn1-c1ccccc1)c1ccc2ccccc2c1" ; retrieve measured inhibition.
[A] -71.5

[Q] Param item = "CN1CCN(CC(=O)C23CC4CC(CC(C4)C2)C3)CC1" ; retrieve measured inhibition.
[A] 5.7

[Q] Param item = COc1ccccc1C(=O)C(O)c1ccccc1OC (centres undefined) ; retrieve measured inhibition.
[A] -2.8

[Q] Param item = "Cc1ccccc1N/N=C/c1ccc(N2CCOCC2)cc1" ; retrieve measured inhibition.
[A] -0.6
